- target: PGHS (cyclooxygenase activity) (Ovis aries, UniProt P05979)
- Construct: PGHS was purified from ram seminal vesicles; from tissue; host or cells: ram seminal vesicles
- Sequence (P05979 25-600): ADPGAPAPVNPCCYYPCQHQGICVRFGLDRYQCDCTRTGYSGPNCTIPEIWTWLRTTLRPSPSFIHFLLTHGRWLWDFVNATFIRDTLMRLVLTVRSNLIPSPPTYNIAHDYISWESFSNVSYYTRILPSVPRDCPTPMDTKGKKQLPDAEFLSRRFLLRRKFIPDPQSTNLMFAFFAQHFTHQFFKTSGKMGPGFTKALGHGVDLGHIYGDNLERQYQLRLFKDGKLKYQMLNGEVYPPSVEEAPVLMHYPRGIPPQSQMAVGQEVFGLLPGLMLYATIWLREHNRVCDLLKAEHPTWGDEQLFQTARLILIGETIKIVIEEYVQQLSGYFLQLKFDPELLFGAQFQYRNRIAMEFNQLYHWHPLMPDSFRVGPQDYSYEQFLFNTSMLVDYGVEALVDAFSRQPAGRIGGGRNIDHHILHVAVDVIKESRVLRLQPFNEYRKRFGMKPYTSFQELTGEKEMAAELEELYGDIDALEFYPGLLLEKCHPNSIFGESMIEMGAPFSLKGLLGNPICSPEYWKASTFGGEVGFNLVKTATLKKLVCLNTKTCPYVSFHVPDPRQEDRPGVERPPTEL
- procedure details: IC50 for inactivation of cyclooxygenase activity of PGHS after 30 min incubation
- Format: biochemical, ram (seminal vesicles)
- condition description: enzyme 0.25 μM; 30 min incubation with inhibitor; read-out: IC50 for inactivation of cyclooxygenase activity of PGHS
pIC50: −log10 of the molar value.
observation type: pIC50

A selection of reference data follows.
>>> endpoint_result("O=C(O)c1ccccc1OCCN1C(=O)C=CC1=O [Compound 13]")
4.40
>>> endpoint_result("O=C(O)c1ccc(CN2C(=O)C=CC2=O)cc1 [Compound 12]")
4.92

A. Cc1ccccc1CN1C(=O)C=CC1=O [Compound 11]
B. CCCCCCCCCCN1C(=O)C=CC1=O [Compound 10]
C. CCCCCCCCN1C(=O)C=CC1=O [Compound 8]
D. CCCCCCCCCN1C(=O)C=CC1=O [Compound 9]
Query string: Please list these compounds in decreasing order of pIC50. Please list the labels in the order you were asked to rank them.
Result string: A, B, D, C
(A: 5.05, B: 4.57, D: 4.30, C: 3.60)
